For each entry below, report its pIC50 value.
test system: melanoma (K111); test: MTT cell growth inhibition assay, K111; assay type: cell-based; details: 48 h, K111 cells, two days, read-out: IC50 ± SD K111
pIC50: −log10 of the molar value.

In: Short answer please: pIC50, melanoma (K111), entry CCN(CC)CCNC(=O)c1c(C)[nH]c(/C=C2\C(=O)Nc3ccc(Cl)cc32)c1Cl [Compound 14i]
Out: < 4.00

In: Record: CCc1c(/C=C2\C(=O)Nc3ccc(F)cc32)[nH]c(Cl)c1C(=O)NCCN(CC)CC [Compound 14q]
Out: < 4.00

In: Record: Cc1[nH]c(/C=C2\C(=O)Nc3ccc(F)cc32)c(Cl)c1C(=O)NCCCN(C)C [Compound 14e]
Out: < 4.00

In: Record: CCN(CC)CCNC(=O)c1c(C)[nH]c(/C=C2\C(=O)Nc3ccc(F)cc32)c1Cl [Compound 14h]
Out: 5.75

In: Record: CCN(CC)CCNC(=O)c1c(Cl)[nH]c(/C=C2\C(=O)Nc3ccc(Br)cc32)c1C [Compound 14j]
Out: < 4.00

In: Record: CCN(CC)CCNC(=O)c1c(C)[nH]c(/C=C2\C(=O)Nc3ccc(F)cc32)c1C [Sunitinib, sunitinib, reference compound]
Out: 5.42

In: Record: Cc1[nH]c(/C=C2\C(=O)Nc3ccc(F)cc32)c(Cl)c1C(=O)NCCN1CCOCC1 [Compound 14a]
Out: < 4.00

In: Record: CCNCCNC(=O)c1c(Cl)[nH]c(/C=C2\C(=O)Nc3ccc(F)cc32)c1C [Compound 14p]
Out: 5.91

In: Record: CCN(CC)CCNC(=O)c1cc(/C=C2\C(=O)Nc3ccc(F)cc32)[nH]c1Cl [Compound 14n]
Out: < 4.00

In: Record: CCCNC(=O)c1c(C)[nH]c(/C=C2\C(=O)Nc3ccc(F)cc32)c1Cl [Compound 14d]
Out: < 4.00

In: Record: CCN(CC)CCNC(=O)c1c(Cl)[nH]c(/C=C2\C(=O)Nc3ccc(F)cc32)c1C [Compound 14o]
Out: < 4.00

In: Record: CCN(CC)CCNC(=O)c1c(Cl)[nH]c(/C=C2\C(=O)Nc3ccc(F)cc32)c1Cl [Compound 14m]
Out: < 4.00

In: Record: Cc1[nH]c(/C=C2\C(=O)Nc3ccc(F)cc32)c(Cl)c1C(=O)N1CCN(C)CC1 [Compound 14b]
Out: < 4.00

In: Record: CCNCCNC(=O)c1c(Cl)[nH]c(/C=C2\C(=O)Nc3ccc(F)cc32)c1CC [Compound 14r]
Out: 5.43

In: Record: CCNCCNC(=O)c1c(C)[nH]c(/C=C2\C(=O)Nc3ccc(F)cc32)c1Cl [Compound 14g]
Out: 5.92

In: Record: Cc1[nH]c(/C=C2\C(=O)Nc3ccc(F)cc32)c(Cl)c1C(=O)NC1CNC1 [Compound 14c]
Out: 5.47

In: Record: CCN(CC)CCNC(=O)c1c(C)[nH]c(/C=C2\C(=O)Nc3ccc(C)cc32)c1Cl [Compound 14l]
Out: < 4.00

In: Record: CCN(CC)CCNC(=O)c1c(C)[nH]c(/C=C2\C(=O)Nc3ccccc32)c1Cl [Compound 14k]
Out: < 4.00

In: Record: Cc1[nH]c(/C=C2\C(=O)Nc3ccc(F)cc32)c(Cl)c1C(=O)NCCN(C)C [Compound 14f]
Out: 5.87
